Values were extracted from patent US5292733A.

- Test system: Micrococcus luteus ATCC 9341
- assay_protocol: Antibacterial activity MIC, two-fold agar dilution
- Format: cell-based
- test_parameters: ATCC9341; Micrococcus luteus ATCC 9341; Muller-Hinton agar, 37° C., 20 hours; read-out: Antibacterial Activity MIC
- Experimental: These MIC values were taken by employing a two-fold dilution method: that is, two-fold serial dilutions of each of the test compounds were made and dispersed in a Muller-Hinton agar medium; 2 μl of the standard test strain which had the 10^7 CFU(Colony Forming Unit) per ml was inoculated on the medium; and these were incubated at 37° C. for 20 hours. The results of the MIC tests are shown Table 1.
MIC values, listed per item
result_type: MIC (µg/mL)

1. CCO/N=C(\C(=O)N[C@@H]1C(=O)N2C(C(=O)[O-])=C(CSc3cc(N)nc(N)[n+]3CC)CS[C@H]12)c1nsc(N)n1    0.063
2. CC[n+]1c(SCC2=C(C(=O)[O-])N3C(=O)[C@@H](NC(=O)/C(=N\OC(C)(C)C(=O)O)c4csc(N)n4)[C@H]3SC2)cc(N)nc1N    0.5
3. CO/N=C(\C(=O)N[C@@H]1C(=O)N2C(C(=O)O)=C(COC(C)=O)CS[C@H]12)c1csc(N)n1 [Cefotaxime, reference compound]    0.031
4. CC(O/N=C(\C(=O)N[C@@H]1C(=O)N2C(C(=O)[O-])=C(CSc3cc(N)[n+](C)c(N)n3)CS[C@H]12)c1csc(N)n1)C(=O)O (stereo partly drawn)    0.5
5. CCO/N=C(\C(=O)N[C@@H]1C(=O)N2C(C(=O)[O-])=C(CSc3cc(N)nc(N)[n+]3C)CS[C@H]12)c1nsc(N)n1    0.031
6. CCO/N=C(\C(=O)N[C@@H]1C(=O)N2C(C(=O)[O-])=C(CSc3cc(N)[n+](CC)c(N)n3)CS[C@H]12)c1nsc(N)n1    0.016

###

- Tested on: Enterobacter aerogenes ATCC 29751
- assay_protocol: Antibacterial activity MIC, two-fold agar dilution
- Assay type: cell-based
- test_parameters: Klebsiella aerogenes, ATCC29751; Enterobacter aerogenes ATCC 29751; Muller-Hinton agar, 37° C., 20 hours; read-out: Antibacterial Activity MIC
result_type: MIC (µg/mL)

1. CC(O/N=C(\C(=O)N[C@@H]1C(=O)N2C(C(=O)[O-])=C(CSc3cc(N)[n+](C)c(N)n3)CS[C@H]12)c1csc(N)n1)C(=O)O (stereo partly drawn)    1
2. C[n+]1c(SCC2=C(C(=O)[O-])N3C(=O)[C@@H](NC(=O)/C(=N\OC(C)(C)C(=O)O)c4csc(N)n4)[C@H]3SC2)cc(N)nc1N    2
3. CO/N=C(\C(=O)N[C@@H]1C(=O)N2C(C(=O)O)=C(COC(C)=O)CS[C@H]12)c1csc(N)n1 [Cefotaxime, reference compound]    2

###

MIC: recorded values
- System: Enterobacter aerogenes ATCC 29751
- assay_protocol: Antibacterial activity MIC, two-fold agar dilution
- Assay type: cell-based
- test_parameters: Klebsiella aerogenes, ATCC29751; Enterobacter aerogenes ATCC 29751; Muller-Hinton agar, 37° C., 20 hours; read-out: Antibacterial Activity MIC
result_type: MIC (µg/mL)

1) C#CCO/N=C(\C(=O)N[C@@H]1C(=O)N2C(C(=O)[O-])=C(CSc3cc(N)[n+](CC)c(N)n3)CS[C@H]12)c1csc(N)n1 [Compound I-15]    1
2) CCO/N=C(\C(=O)N[C@@H]1C(=O)N2C(C(=O)[O-])=C(CSc3cc(N)[n+](CC)c(N)n3)CS[C@H]12)c1nsc(N)n1 [Compound I-11]    0.13
3) CC[n+]1c(N)nc(N)nc1SCC1=C(C(=O)[O-])N2C(=O)C(NC(=O)/C(=N\OC(C)(C)C(=O)O)c3csc(N)n3)[C@H]2SC1 (stereo partly drawn) [Compound I-24]    2
4) C[n+]1c(N)cc(SCC2=C(C(=O)[O-])N3C(=O)[C@@H](NC(=O)/C(=N\OCC(=O)O)c4csc(N)n4)[C@H]3SC2)nc1N [Compound I-17]    1
5) CC[n+]1c(N)cc(SCC2=C(C(=O)[O-])N3C(=O)[C@@H](NC(=O)/C(=N\OCC(=O)O)c4csc(N)n4)[C@H]3SC2)nc1N [Compound I-18]    2
6) C#CCO/N=C(\C(=O)N[C@@H]1C(=O)N2C(C(=O)[O-])=C(CSc3cc(N)[n+](C)c(N)n3)CS[C@H]12)c1csc(N)n1 [Compound I-14]    0.5
